The values you see were collected from patent US12403137B2.

assay.system: PRMT5 (Homo sapiens, UniProt O14744)
Construct: purchased Viva (custom protein)
Sequence (O14744 whole entry): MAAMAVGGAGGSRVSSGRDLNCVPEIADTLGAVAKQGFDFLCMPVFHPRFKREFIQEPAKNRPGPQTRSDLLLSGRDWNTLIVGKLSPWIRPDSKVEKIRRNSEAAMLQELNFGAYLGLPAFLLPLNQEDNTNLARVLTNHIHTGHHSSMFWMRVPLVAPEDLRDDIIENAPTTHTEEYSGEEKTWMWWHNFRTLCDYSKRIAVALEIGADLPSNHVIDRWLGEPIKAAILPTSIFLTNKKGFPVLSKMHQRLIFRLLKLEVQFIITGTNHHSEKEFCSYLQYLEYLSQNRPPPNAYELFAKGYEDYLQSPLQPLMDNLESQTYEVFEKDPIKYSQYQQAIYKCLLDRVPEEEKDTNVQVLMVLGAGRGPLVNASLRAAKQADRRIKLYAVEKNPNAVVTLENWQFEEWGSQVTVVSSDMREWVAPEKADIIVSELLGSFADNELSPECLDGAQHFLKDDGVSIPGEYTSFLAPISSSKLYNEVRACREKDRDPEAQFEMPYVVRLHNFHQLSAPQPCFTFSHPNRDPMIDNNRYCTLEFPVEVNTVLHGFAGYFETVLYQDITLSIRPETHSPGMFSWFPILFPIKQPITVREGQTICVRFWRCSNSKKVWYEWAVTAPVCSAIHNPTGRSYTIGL
Sequence (Q9BQA1 whole entry partner): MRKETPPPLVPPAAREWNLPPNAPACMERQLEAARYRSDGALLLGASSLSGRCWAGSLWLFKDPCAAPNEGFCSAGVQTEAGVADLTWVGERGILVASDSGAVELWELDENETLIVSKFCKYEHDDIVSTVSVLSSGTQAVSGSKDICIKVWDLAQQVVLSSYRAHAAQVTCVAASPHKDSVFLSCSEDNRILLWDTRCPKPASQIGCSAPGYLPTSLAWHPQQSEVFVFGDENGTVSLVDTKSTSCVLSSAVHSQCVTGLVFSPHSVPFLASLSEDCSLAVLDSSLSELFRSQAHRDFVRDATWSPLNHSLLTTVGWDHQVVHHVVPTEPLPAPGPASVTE
assay.text: PRMT5 inhibition assay with MTA as cofactor
Assay type: biochemical
experimental.context: against PRMT5 with MTA as cofactor
measurement.label: IC50

Prompt: Can you look up IC50 on PRMT5 (Homo sapiens, UniProt O14744) for Cc1ncoc1COc1ccc2c(c1)CN[C@H]([C@H](O)CNC(=O)c1cccc(NC3CCC3)c1)C2 ?
Response: < 50 nM

Prompt: IC50 of Cc1ncoc1COc1ccc2c(c1)CN[C@H]([C@H](O)CNC(=O)c1cc(NC3CCC3)nc(N3CCN(C(C)C)CC3)c1)C2 on PRMT5 (Homo sapiens, UniProt O14744)?
Response: < 50 nM

Prompt: Notebook entry, PRMT5 (Homo sapiens, UniProt O14744) assay: IC50 of Cc1ncoc1COc1ccc2c(c1)CN[C@H]([C@H](O)CNC(=O)c1cc(NC3CCC3)nc(N3CCN(C)CC3)c1)C2 = ?
Response: < 50 nM

Prompt: Please state recorded IC50 (tested on PRMT5 (Homo sapiens, UniProt O14744)) of CC(=O)N1CC(Nc2cc(C(=O)NC[C@@H](O)[C@@H]3Cc4ccc(OCc5ocnc5C)cc4CN3)cc(N3CCN(C(C)C)CC3)n2)C1
Response: < 50 nM

Prompt: Notebook entry, PRMT5 (Homo sapiens, UniProt O14744) assay: IC50 of CCN(C)c1cc(C(=O)NC[C@@H](O)[C@@H]2Cc3ccc(OCc4ocnc4C)cc3CN2)cc(NC2CCC2)n1 = ?
Response: 50 to 500 nM

====

Test system: HAP1 MTAP-deleted cell line
assay.text: SDMA in-cell western assay, HAP1 MTAP-deleted
Format: cell-based
experimental.context: Homo sapiens, HAP1 MTAP-deleted (MTAP-null) cell line
measurement.label: IC50

Prompt: Need IC50, item Cc1ncoc1COc1ccc2c(c1)CN[C@H]([C@H](O)CNC(=O)c1ccc(C(=O)N3CCOCC3)cc1)C2
Response: 1000 to 10000 nM

Prompt: Would you kindly share the measured IC50 for CCOc1nc(N2CCN(C(=O)OC)CC2)ccc1C(=O)NC[C@@H](O)[C@@H]1Cc2ccc(OCc3ccnn3C)cc2CN1 ?
Response: < 1000 nM

Prompt: Using the record for CC(=O)N1CCC(Nc2cc(C(=O)NC[C@@H](O)[C@@H]3Cc4ccc(OCc5ocnc5C)cc4CN3)ncn2)CC1 , report its IC50.
Response: 1000 to 10000 nM

Prompt: What value of IC50 has been recorded for this entry: Cc1ncoc1COc1ccc2c(c1)CN[C@H]([C@H](O)CNC(=O)c1cc(NC3CC4(CCC4)C3)nc(N3CCCCC3)n1)C2
Response: < 1000 nM

====

assay.system: PRMT5 (Homo sapiens)
Construct: purchased Viva (custom protein)
assay.text: PRMT5 inhibition assay with MTA as cofactor
Type: biochemical
experimental.context: against PRMT5 with MTA as cofactor
pIC50: −log10 of the molar value.
measurement.label: pIC50

Prompt: What measured pIC50 goes with COCCN(C)c1cc(C(=O)NC[C@@H](O)[C@@H]2Cc3ccc(OCc4ocnc4C)cc3CN2)cc(NC2CCN(C(C)=O)CC2)n1 [Compound 66] ?
Response: > 7.30

Prompt: Any idea what its pIC50 is? The compound is CCOc1cc(C(=O)N2[C@@H]3CCC[C@H]2COC3)ccc1C(=O)NC[C@@H](O)[C@@H]1Cc2ccc(OCc3cnco3)cc2CN1 [Compound 13]
Response: 6.30 to 7.30

Prompt: Which value of pIC50 has been reported for CCOc1cc(C(=O)N2C3CCC2COC3)ccc1C(=O)NC[C@@H](O)[C@@H]1Cc2ccc(OCc3ccn[nH]3)cc2CN1 [Compound 76] in the records?
Response: 6.30 to 7.30

Prompt: Dear colleague, I am looking for the recorded pIC50 of the following compound: CC(=O)N1CCC(Nc2cc(C(=O)NC[C@@H](O)[C@@H]3Cc4ccc(OCc5ocnc5C)cc4CN3)cc(N3CCN(C(C)C)CC3)n2)CC1 [Compound 71]
Response: > 7.30

Prompt: State the recorded pIC50 for this entry: CC(=O)N1CCC(Nc2cc(C(=O)NC[C@@H](O)[C@@H]3Cc4ccc(OCc5ocnc5C)cc4CN3)nc(N3CCCC3)n2)CC1 [Compound 81]
Response: > 7.30

Prompt: Would you mind telling me what pIC50 value was observed for CC(=O)N1CCC(Nc2cc(C(=O)NC[C@@H](O)[C@@H]3Cc4ccc(OCc5ocnc5C)cc4CN3)cc(N3CCCCC3)n2)CC1 [Compound 40] ?
Response: > 7.30

Prompt: Consider the compound shown here: Cc1ncoc1COc1ccc2c(c1)CN[C@H]([C@H](O)CNC(=O)c1cc(NC3CCC3)cc(N3CCCCC3)c1)C2 [Compound 58] What is its recorded pIC50?
Response: > 7.30

Prompt: What measured pIC50 goes with CCOc1cc(C(=O)N2C3CCC2COC3)ccc1C(=O)NC[C@@H](O)[C@@H]1Cc2ccc(OCc3cnco3)cc2CN1 [Compound 11] ?
Response: 6.30 to 7.30

Prompt: Name the recorded pIC50 for Cc1ncoc1COc1ccc2c(c1)CN[C@H]([C@H](O)CNC(=O)c1cc(NC3CC4(CCC4)C3)nc(N3CCCCC3)n1)C2 [Compound 57] .
Response: 6.30 to 7.30

Prompt: // pIC50 lookup, key: CCC(=O)N1CCN(c2cc(C(=O)NC[C@@H](O)[C@@H]3Cc4ccc(OCc5ocnc5C)cc4CN3)cc(NC3CCC3)n2)CC1 [Compound 39]
Response: > 7.30

Prompt: Fill in the blank: the reported pIC50 of CCOc1cc(C(=O)N2C3CCC2COC3)ccc1C(=O)NC[C@@H](O)[C@@H]1Cc2ccc(OCc3ccncc3)cc2CN1 [Compound 73] is ____.
Response: 6.30 to 7.30

Prompt: Dear colleague, I am looking for the recorded pIC50 of the following compound: CCCN(C)c1nc(NC2COC2)cc(C(=O)NC[C@@H](O)[C@@H]2Cc3ccc(OCc4ocnc4C)cc3CN2)n1 [Compound 38]
Response: 5.30 to 6.30

Prompt: Fill blank: measured pIC50 of the compound CC(=O)N1CCC(Nc2cc(C(=O)NC[C@@H](O)[C@@H]3Cc4ccc(OCc5ocnc5C)cc4CN3)nc(N3CCCCC3)n2)CC1 [Compound 50] is ____.
Response: > 7.30

Prompt: Sample COc1cc(C(=O)NC[C@@H](O)[C@@H]2Cc3ccc(OCc4ocnc4C)cc3CN2)cc(NC2CCC2)n1 [Compound 26] — what was its pIC50?
Response: > 7.30

Prompt: For Cc1ncoc1COc1ccc2c(c1)CN[C@H]([C@H](O)CNC(=O)c1cc(NC3CC4(CCC4)C3)nc(N3CCN(C(=O)C4CC4)CC3)n1)C2 [Compound 84] , what is its reported pIC50?
Response: > 7.30

Prompt: pIC50 for Cc1ncoc1COc1ccc2c(c1)CN[C@H]([C@H](O)CNC(=O)c1cc(NC3CC4(CCC4)C3)ncn1)C2 [Compound 43] ?
Response: > 7.30

Prompt: Query (compound): O=C(NC[C@@H](O)[C@@H]1Cc2ccc(OCc3cnco3)cc2CN1)c1ccc(C(=O)N2CCOCC2)cc1 [Compound 1] ; field requested: pIC50
Response: 6.30 to 7.30

Prompt: Fill blank: measured pIC50 of the compound Cn1nccc1COc1ccc2c(c1)CN[C@H]([C@H](O)CNC(=O)c1ccc(C(=O)N3[C@@H]4CCC[C@H]3COC4)cc1)C2 [Compound 9] is ____.
Response: 6.30 to 7.30

Prompt: // returns reported pIC50 for input COCCN(C)c1cc(C(=O)NC[C@@H](O)[C@@H]2Cc3ccc(OCc4ocnc4C)cc3CN2)cc(NC2CN(C(C)=O)C2)n1 [Compound 69]
Response: > 7.30

====

assay.system: PRMT5 (Homo sapiens)
Construct: purchased Viva (custom protein)
assay.text: PRMT5 inhibition assay with MTA as cofactor
Assay type: biochemical
experimental.context: against PRMT5 with MTA as cofactor
pIC50: −log10 of the molar value.
measurement.label: pIC50

Prompt: # input compound: CC(=O)N1CC(Nc2cc(C(=O)NC[C@@H](O)[C@@H]3Cc4ccc(OCc5ocnc5C)cc4CN3)nc(N3CCN(C(C)C)CC3)n2)C1 ; wanted: its pIC50
Response: > 7.30

Prompt: Give its pIC50 value. Item: CCOc1cc(C(=O)N2C3CCC2COC3)ccc1C(=O)NC[C@@H](O)[C@@H]1Cc2ccc(OCc3ocnc3C)cc2CN1
Response: 6.30 to 7.30

Prompt: Need pIC50, item Cn1nccc1COc1ccc2c(c1)CN[C@H]([C@H](O)CNC(=O)c1ccc(C(=O)N3CCOCC3)cc1)C2
Response: 6.30 to 7.30

Prompt: Entry under review: Cc1ncoc1COc1ccc2c(c1)CN[C@H]([C@H](O)CNC(=O)c1cc(NC3CCC3)ncc1F)C2 . Reported pIC50?
Response: 6.30 to 7.30

Prompt: Any idea what its pIC50 is? The compound is Cc1ncoc1COc1ccc2c(c1)CN[C@H]([C@H](O)CNC(=O)c1ccc3c(c1)CCN(C(=O)c1ccc(Br)cc1)C3)C2
Response: > 7.30

Prompt: Data request, read-out pIC50, for CCOc1nc(N2CCN(C(=O)OC)CC2)ccc1C(=O)NC[C@@H](O)[C@@H]1Cc2ccc(OCc3ocnc3C)cc2CN1
Response: > 7.30

Prompt: I would be grateful if you could share the reported pIC50 for CC(=O)N1CC(Nc2cc(C(=O)NC[C@@H](O)[C@@H]3Cc4ccc(OCc5ocnc5C)cc4CN3)nc(N3CC4CCC3C4)n2)C1 (some centres unmarked) .
Response: > 7.30

Prompt: # pIC50 lookup, item CC(=O)N1CCC(Nc2cc(C(=O)NC[C@@H](O)[C@@H]3Cc4ccc(OCc5ocnc5C)cc4CN3)ccn2)CC1
Response: > 7.30

Prompt: Given the compound CCOc1cc(C(=O)N2C3CCC2COC3)ccc1C(=O)NC[C@@H](O)[C@@H]1Cc2ccc(OCc3ccnn3C)cc2CN1 , what is its reported pIC50?
Response: 6.30 to 7.30

Prompt: Quick one: pIC50 for CC(=O)N1CCN(c2cc(C(=O)NC[C@@H](O)[C@@H]3Cc4ccc(OCc5ocnc5C)cc4CN3)cc(NC3CCC3)n2)CC1 ?
Response: > 7.30

Prompt: Tell me the measured pIC50 of Cc1ncoc1COc1ccc2c(c1)CN[C@H]([C@H](O)CNC(=O)c1cc(NC3CCC3)nc(N3CCN(C(C)C)CC3)n1)C2 , please.
Response: > 7.30

Prompt: // lookup pIC50 for CC(=O)N1CC(Nc2cc(C(=O)NCC[C@H]3Cc4ccc(OCc5ocnc5C)cc4CN3)nc(N3CCCCC3)n2)C1 (single isomer, unassigned)
Response: > 7.30

Prompt: Please report the recorded pIC50 for CC(=O)N1CC(Nc2cc(C(=O)NC[C@@H](O)[C@@H]3Cc4ccc(OCc5ocnc5C)cc4CN3)cc(N3CCCCC3)n2)C1 .
Response: > 7.30

Prompt: What pIC50 value was documented for this compound, CC(=O)N1CC(Nc2cc(C(=O)NC[C@@H](O)[C@@H]3Cc4ccc(OCc5ocnc5C)cc4CN3)nc(N3CC4CCC(C4)C3)n2)C1 ?
Response: > 7.30

Prompt: Look up pIC50: O=C(NC[C@@H](O)[C@@H]1Cc2ccc(OCc3cnco3)cc2CN1)c1ccc(C(=O)N2[C@@H]3CCC[C@H]2COC3)cc1
Response: 6.30 to 7.30

Prompt: Which pIC50 value belongs to COc1ccc(C(=O)N2CCc3cc(C(=O)NC[C@@H](O)[C@@H]4Cc5ccc(OCc6cnco6)cc5CN4)ccc3C2)cc1 ?
Response: > 7.30

Prompt: What does the data say about its pIC50? Entry: CCN1CCN(c2cc(C(=O)NC[C@@H](O)[C@@H]3Cc4ccc(OCc5ocnc5C)cc4CN3)cc(NC3CCC3)n2)CC1
Response: > 7.30

Prompt: // lookup pIC50 for Cc1ncoc1COc1ccc2c(c1)CN[C@H]([C@H](O)CNC(=O)c1ccc(OC3CCN(Cc4ccncc4)CC3)cc1)C2
Response: > 7.30

Prompt: What pIC50 value was documented for this compound, Cc1ncoc1COc1ccc2c(c1)CN[C@H]([C@H](O)CNC(=O)c1cc(NC3CCC3)nc(C3CCN(C(C)C)CC3)c1)C2 ?
Response: > 7.30

Prompt: Dear colleague, I am looking for the recorded pIC50 of the following compound: CC(=O)N1CC(Nc2cc(C(=O)NC[C@@H](O)[C@@H]3Cc4ccc(OCc5ocnc5C)cc4CN3)nc(N3CCCC3)n2)C1
Response: > 7.30
